Documented IC50 across a set of compounds
tested on: human T-lymphocyte (CEM) cells; assay: Cytostatic activity, CEM cell proliferation; assay type: cell-based; conditions: mean ± SD of three experiments; highest concentration tested 250 µM; 3 days; read-out: Toxicity (IC50) CEM
ASSAY_METRIC: IC50

{"COMPOUND": "CN[C@H](CC(C)C)C(=O)N[C@H]1C(=O)N[C@@H](CC(N)=O)C(=O)N[C@H]2C(=O)N[C@H]3C(=O)N[C@H](C(=O)N[C@H](C(=O)NCC(=O)Nc4ccccc4)c4cc(O)cc(O)c4-c4cc3ccc4O)[C@H](O)c3ccc(c(Cl)c3)Oc3cc2cc(c3O[C@@H]2O[C@H](CO)[C@@H](O)[C@H](O)[C@H]2O[C@H]2C[C@](C)(N)[C@H](O)[C@H](C)O2)Oc2ccc(cc2Cl)[C@H]1O", "READING": "> 250 µM"}
{"COMPOUND": "CNC(CC(C)C)C(=O)NC1C(=O)NC(CC(N)=O)C(=O)NC2C(=O)NC3C(=O)NC(C(=O)NC(C(=O)NCC(=O)Nc4cccc(OC)c4)c4cc(O)cc(O)c4-c4cc3ccc4O)C(O)c3ccc(c(Cl)c3)Oc3cc2cc(c3OC2OC(CO)C(O)C(O)C2OC2CC(C)(N)C(O)C(C)O2)Oc2ccc(cc2Cl)C1O (stereo not drawn)", "READING": "> 250 µM"}
{"COMPOUND": "CN[C@H](CC(C)C)C(=O)N[C@H]1C(=O)N[C@@H](CC(N)=O)C(=O)N[C@H]2C(=O)N[C@H]3C(=O)N[C@H](C(=O)N[C@H](C(=O)NCC(=O)Nc4ccc(Cl)cc4Cl)c4cc(O)cc(O)c4-c4cc3ccc4O)[C@H](O)c3ccc(c(Cl)c3)Oc3cc2cc(c3O[C@@H]2O[C@H](CO)[C@@H](O)[C@H](O)[C@H]2O[C@H]2C[C@](C)(N)[C@H](O)[C@H](C)O2)Oc2ccc(cc2Cl)[C@H]1O", "READING": "114 µM"}
{"COMPOUND": "CCc1cccc(C)c1NC(=O)CNC(=O)C1NC(=O)C2NC(=O)C(NC(=O)C3NC(=O)C(CC(N)=O)NC(=O)C(NC(=O)C(CC(C)C)NC)C(O)c4ccc(c(Cl)c4)Oc4cc3cc(c4OC3OC(CO)C(O)C(O)C3OC3CC(C)(N)C(O)C(C)O3)Oc3ccc(cc3Cl)C2O)c2ccc(O)c(c2)-c2c(O)cc(O)cc21 (stereo not drawn)", "READING": "> 250 µM"}
{"COMPOUND": "CNC(CC(C)C)C(=O)NC1C(=O)NC(CC(N)=O)C(=O)NC2C(=O)NC3C(=O)NC(C(=O)NC(C(=O)NCCCNC(=O)c4ccc5cc(NS(=O)(=O)c6ccccc6)ccc5c4)c4cc(O)cc(O)c4-c4cc3ccc4O)C(O)c3ccc(c(Cl)c3)Oc3cc2cc(c3OC2OC(CO)C(O)C(O)C2OC2CC(C)(N)C(O)C(C)O2)Oc2ccc(cc2Cl)C1O (stereo not drawn)", "READING": "≥ 250 µM"}
{"COMPOUND": "CCCCCCn1cc(-c2ccc(NC(=O)CNC(=O)C3NC(=O)C4NC(=O)C(NC(=O)C5NC(=O)C(CC(N)=O)NC(=O)C(NC(=O)C(CC(C)C)NC)C(O)c6ccc(c(Cl)c6)Oc6cc5cc(c6OC5OC(CO)C(O)C(O)C5OC5CC(C)(N)C(O)C(C)O5)Oc5ccc(cc5Cl)C4O)c4ccc(O)c(c4)-c4c(O)cc(O)cc43)cc2)nn1 (stereo not drawn)", "READING": "31 µM"}

Where do these numbers come from? They come from paper PMC6001238.
